B1: FAM98B (parent)
chain: QLDKNSEVYQEVQAMFDTLGIPKS

Variants of: B1
Test: protein stability index of a GFP-peptide fusion (GPS, HEK-293T) (PSI 1-6); higher = more stable;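 further: lentivirally expressed fusions sorted by FACS into six bins by GFP to DsRed ratio, PSI derived from sequencing read proportions per bin multiplied by bin number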
Conditions: c terminus: a fixed tail appended
result_type: protein stability index

variant_descriptor=K23C result_type="protein stability index" reported=3.06
variant_descriptor=P22L result_type="protein stability index" reported=2.03
variant_descriptor=V8H result_type="protein stability index" reported=3.12
variant_descriptor=I21W result_type="protein stability index" reported=3.6
variant_descriptor=A14G result_type="protein stability index" reported=2.58
variant_descriptor=Q13V result_type="protein stability index" reported=3.15
variant_descriptor=S6I result_type="protein stability index" reported=2.69
variant_descriptor=Q13M result_type="protein stability index" reported=2.73
variant_descriptor=G20L result_type="protein stability index" reported=3.2
variant_descriptor=F16G result_type="protein stability index" reported=3.78
variant_descriptor=D17L result_type="protein stability index" reported=2.23
variant_descriptor=V8I result_type="protein stability index" reported=2.73
variant_descriptor=S6V result_type="protein stability index" reported=3.47
variant_descriptor=K23T result_type="protein stability index" reported=3.24
variant_descriptor=D3S result_type="protein stability index" reported=2.93
variant_descriptor=Q10F result_type="protein stability index" reported=2
variant_descriptor=F16T result_type="protein stability index" reported=3.78
variant_descriptor=E11W result_type="protein stability index" reported=1.27
variant_descriptor=F16P result_type="protein stability index" reported=4.42
variant_descriptor=G20M result_type="protein stability index" reported=2.5
variant_descriptor=Y9I result_type="protein stability index" reported=3.67
variant_descriptor=D3K result_type="protein stability index" reported=3.45
